experimental-details: AUC (0 to infinity) in ICR mouse at 10 mg/kg, po measured up to 24 hrs
Assay type: ADME, organism-based
run-conditions: in vivo
quantity-name: AUC(0-inf) (ng·h/mL)

> print(dat)
                         compound.structure  assay.result
1  COc1ncnc(C2CC2)c1-c1nc(N2CCOC[C@H]2c2ccc(-c3nc(C(F)(F)F)cn3C(C)C)cc2)c2occc2n1         14200

* * *

experimental-details: Metabolic stability in monkey liver microsome assessed as intrinsic clearance preincubated for 5 mins followed by NADPH addition and measured after 120 mins by LC-MS/MS analysis
Type: ADME, Macaca mulatta
run-conditions: rhesus monkey, liver microsomes; time 125 min; read-out: CLH
quantity-name: CLint scaled

> print(dat)
                         compound.structure  quantity.name    assay.result
1  COc1ncnc(C2CC2)c1-c1nc(N2CCOC[C@H]2c2ccc(-c3nc(C(F)(F)F)cn3C(C)C)cc2)c2occc2n1   CLint scaled  33.9 mL/min/kg

* * *

experimental-details: AUC (0 to t) in ICR mouse at 10 mg/kg, po measured up to 24 hrs
Assay type: ADME, organism-based
run-conditions: in vivo
quantity-name: AUC(0-t) at 24 h (ng·h/mL)

> print(dat)
                         compound.structure     quantity.name  measurement.unit  assay.result
1  COc1ncnc(C2CC2)c1-c1nc(N2CCOC[C@H]2c2ccc(-c3nc(C(F)(F)F)cn3C(C)C)cc2)c2occc2n1  AUC(0-t) at 24 h           ng·h/mL         13300

* * *

experimental-details: Metabolic stability in human liver microsome assessed as half life preincubated for 5 mins followed by NADPH addition and measured after 120 mins by LC-MS/MS analysis
Format: ADME
run-conditions: liver microsomes, time 125 min
quantity-name: half-life (h)

> print(dat)
                         compound.structure  quantity.name  assay.result
1  COc1ncnc(C2CC2)c1-c1nc(N2CCOC[C@H]2c2ccc(-c3nc(C(F)(F)F)cn3C(C)C)cc2)c2occc2n1      half-life          1.43

* * *

experimental-details: Metabolic stability in monkey liver microsome assessed as half life preincubated for 5 mins followed by NADPH addition and measured after 120 mins by LC-MS/MS analysis
Format: ADME, Macaca mulatta
run-conditions: rhesus monkey, liver microsomes; time 125 min
quantity-name: half-life (min)

> print(dat)
                         compound.structure  quantity.name  assay.result
1  COc1ncnc(C2CC2)c1-c1nc(N2CCOC[C@H]2c2ccc(-c3nc(C(F)(F)F)cn3C(C)C)cc2)c2occc2n1      half-life          59.8

* * *

experimental-details: Metabolic stability in mouse liver microsome assessed as half life preincubated for 5 mins followed by NADPH addition and measured after 120 mins by LC-MS/MS analysis
Type: ADME
run-conditions: liver microsomes, time 125 min
quantity-name: half-life (h)

> print(dat)
                         compound.structure  assay.result
1  COc1ncnc(C2CC2)c1-c1nc(N2CCOC[C@H]2c2ccc(-c3nc(C(F)(F)F)cn3C(C)C)cc2)c2occc2n1             1

* * *

experimental-details: Metabolic stability in rat liver microsome assessed as intrinsic clearance preincubated for 5 mins followed by NADPH addition and measured after 120 mins by LC-MS/MS analysis
Assay type: ADME
run-conditions: liver microsomes, time 125 min, read-out: CLH
quantity-name: CLint scaled

> print(dat)
                         compound.structure      assay.result
1  COc1ncnc(C2CC2)c1-c1nc(N2CCOC[C@H]2c2ccc(-c3nc(C(F)(F)F)cn3C(C)C)cc2)c2occc2n1  < 20.7 mL/min/kg
